B1: library; a variant is named by its letters at N, in order (parent)
chain: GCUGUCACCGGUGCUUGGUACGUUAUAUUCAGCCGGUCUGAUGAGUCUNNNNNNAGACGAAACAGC

variants of: B1; experiment: FACS-Seq fitted mean relative fluorescence mCherry/BFP without ligand (log10 relative fluorescence); HEK293T overexpressing SLC46A1; higher = higher reporter protein expression; conditions: without (6R,S)-folinic acid; ligand present: no
Classification scheme (FACS-Seq fitted mean (log10)): low (below 0.2), intermediate (0.2 to below 0.4), high (0.4 or more)

>  <changes>
UGGGUG

>  <class name>
low

$$$$
>  <changes>
UCUUUU

>  <class name>
high

$$$$
>  <changes>
AUCGCU

>  <class name>
low

$$$$
>  <changes>
UAAAAC

>  <class name>
intermediate

$$$$
>  <changes>
UGCUCU

>  <class name>
high

$$$$
>  <changes>
CAUGUG

>  <class name>
intermediate

$$$$
>  <changes>
AAGAAA

>  <class name>
low

$$$$
>  <changes>
UAGACG

>  <class name>
intermediate

$$$$
>  <changes>
AGGUUU

>  <class name>
intermediate

$$$$
>  <changes>
GCCAAA

>  <class name>
high

$$$$
>  <changes>
CGGUAA

>  <class name>
low

$$$$
>  <changes>
UCGUUG

>  <class name>
high

$$$$
>  <changes>
AUUAGA

>  <class name>
low

$$$$
>  <changes>
UUGUAU

>  <class name>
low

$$$$
>  <changes>
ACGACC

>  <class name>
high

$$$$
>  <changes>
AGCGCA

>  <class name>
high

$$$$
>  <changes>
AUACCA

>  <class name>
low

$$$$
>  <changes>
CGGCUC

>  <class name>
intermediate

$$$$
>  <changes>
AUGCAA

>  <class name>
intermediate

$$$$
